Molecular target: BCMA (analyte of Table 4A)
Sequence (Q02223 whole entry): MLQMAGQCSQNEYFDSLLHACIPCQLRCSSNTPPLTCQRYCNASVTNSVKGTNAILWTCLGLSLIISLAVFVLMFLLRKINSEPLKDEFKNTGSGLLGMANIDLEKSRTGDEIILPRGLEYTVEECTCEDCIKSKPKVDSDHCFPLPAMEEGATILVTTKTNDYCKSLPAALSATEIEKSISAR
Assay: SPR (Bio-Rad ProteOn XPR36), IgG amine-coupled, BCMA as analyte, kinetic titration; species of BCMA and temperature not stated for Table 4A
quantity kind: koff (s⁻¹)
Answers are plain numbers, in s⁻¹.

Prompt line: // koff lookup, key: A02_Rd4_6nM_C01 (antibody, V domains shown) VH: EVQLLESGGGLVQPGGSLRLSCAASGFTFSSYAMNWVRQAPGKGLEWVSAITASGGSTYYADSVKGRFTISRDNSKNTLYLQMNSLRAEDTAVYYCARYWPMSLWGQGTLVTVSS VL: EIVLTQSPGTLSLSPGERATLSCRASQSVSAYYLAWYQQKPGQAPRLLMYDASIRATGIPDRFSGSGSGTDFTLTISRLEPEDFAVYYCQQYERWPLTFGQGTKVEIK
Response line: 2.8e-05
